System: SF-268
Experiment: NCI tumour cell line growth inhibition, 48 h
The source made the active and inactive calls. Rule as the data show it: active = GI50 up to about 1.1 µM and inactive = higher.
Listed here are compounds together with their documented GI50.

Nc1ccc2c(c1)C(=O)c1c(F)cccc1-2 has a reported GI50 of 17.9 µM (inactive)

COc1ccc(C2OC(=O)c3ccc4ccccc4c32)c(C)c1 (stereo not given) has a reported GI50 of 45.2 µM (inactive)

Nc1ccc(C(=O)O)cc1 has a reported GI50 of > 100 µM (inactive)

CCOC(=O)C1C(=O)c2ccccc2CN1Cc1ccccc1 (stereo not given) has a reported GI50 of > 100 µM (inactive)

CC(=N\N=C\c1ccccn1)/C(C)=N/N=C(C)/C(C)=N/N=C/c1ccccn1 has a reported GI50 of > 100 µM (inactive)

Cn1/c(=N\N=C(\CNCCO)[C@@H](O)[C@@H]2OC(c3ccccc3)OC[C@H]2O)sc2ccccc21 (stereo not given in full) has a reported GI50 of 15.5 µM (inactive)

C=C(C)C1(Sc2ccc(OC)cc2)CC1 has a reported GI50 of 15.8 µM (inactive)

CON(C)c1nc(N)c(C#N)c(C#N)c1C#N has a reported GI50 of > 10 µM (inactive)

COc1c(OC(C)=O)cc2c(OC(C)=O)c1CC(C)CC(OC)C(O)C(C)/C=C(\C)C(OC(N)=O)C(OC)/C=C\C=C(/C)C(=O)N2 (stereo not given) has a reported GI50 of > 100 µM (inactive)

COc1ccc(-c2cc(-c3ccc(Nc4ccnc5cc(C(F)(F)F)ccc45)cc3)[nH]c(=O)c2C#N)c2ccccc12 has a reported GI50 of 38.1 µM (inactive)

C[C@@H]1CC[C@@H]2[C@@H](C1)O[C@@H]([C@H](C)OCc1ccccc1)SC2(C)C has a reported GI50 of 32.3 µM (inactive)

OCC1CC2C=CCC(C2)C1 (stereo not given) has a reported GI50 of > 100 µM (inactive)

Cc1cnc2ccc(C)c([N+](=O)[O-])c2c1NCCCN(C)C has a reported GI50 of > 100 µM (inactive)

CC(C)OC(=O)NCCn1cc(-c2ccccc2)nn1 has a reported GI50 of > 100 µM (inactive)

COc1ccc2c(c1)CC[C@@H]1C2CC[C@]2(C)C(=O)N(C)C(=O)CC12 (stereo not given in full) has a reported GI50 of > 100 µM (inactive)

CC(=O)c1c(C)cn(S(=O)(=O)NC(=O)Nc2nncs2)c1C has a reported GI50 of > 100 µM (inactive)
